Test system: Hs-578T
assayProcedure: NCI tumour cell line growth inhibition, 48 h
The source made the active and inactive calls. Cut-off read from the data, not from the text of the source: active = GI50 up to about 1.1 µM and inactive = higher.
endpoint: GI50

{"columns": ["molecule", "system", "recordedMeasurement"],
 "data": [
  ["C1=N\\CCN2CCN(CC/N=C\\c3ccccc3OCc3cccc(n3)COc3ccccc3/1)CC2", "Hs-578T", "1.38 µM (inactive)"],
  ["O=c1ccc2ccc(CBr)cc2o1", "Hs-578T", "9.84 µM (inactive)"],
  ["CC(=O)c1cccc(Nc2nc3ccc(Cl)cc3c3[nH]c4ccccc4c23)c1", "Hs-578T", "9.35 µM (inactive)"],
  ["CCCC[C@@H]1CCN2C[C@@H](O)[C@@H](O)[C@H]2[C@@H]1O", "Hs-578T", "> 100 µM (inactive)"],
  ["Cc1cc(OCc2nnc3n2S(=O)(=O)c2ccccc2N3C)ccc1Cl", "Hs-578T", "40.8 µM (inactive)"],
  ["CC(C)=CC(=O)c1[nH]c2ccccc2c1CC(=O)NCCc1cn(C(c2ccccc2)(c2ccccc2)c2ccccc2)cn1", "Hs-578T", "16.8 µM (inactive)"],
  ["CC(C)(C)N/N=C(\\C(=O)NC1=C(Cl)C(=O)c2ccccc2C1=O)C1C=CCS1(=O)=O (stereo not drawn)", "Hs-578T", "19.5 µM (inactive)"],
  ["S=C(/N=c1/sc(Nc2ccccc2)nc2sc3c(c12)CCCC3)Nc1ccccc1", "Hs-578T", "> 62.5 µM (inactive)"]
]}

----------
Reported values of GI50 for individual entries
System: NCI/ADR-RES
assayProcedure: NCI tumour cell line growth inhibition, 48 h
Active and inactive are the calls of the source. Rule as the data show it: active = GI50 up to about 1.1 µM and inactive = higher.

{"columns": ["querySmiles", "system", "GI50"],
 "data": [
  ["Oc1cc(O)cc(-c2nc3cc(F)ccc3s2)c1", "NCI/ADR-RES", "36.8 µM (inactive)"],
  ["Cc1ccccc1/N=N/c1ccc(/N=N/c2c(O)ccc3cc(S(=O)(=O)O)cc(S(=O)(=O)O)c23)c(C)c1", "NCI/ADR-RES", "> 100 µM (inactive)"],
  ["CC(C)(CO)CNc1cc(Cl)nc(N)n1", "NCI/ADR-RES", "> 100 µM (inactive)"]
]}

----------
Test system: MDA-MB-231
assayProcedure: NCI tumour cell line growth inhibition, 48 h
Calls of active or inactive are those of the source. Rule as the data show it: active = GI50 up to about 1.1 µM and inactive = higher.
Labels: active, inactive

{"columns": ["querySmiles", "classAssignment"],
 "data": [
  ["C/C(=N/NC(=S)N1CC2CCC(CC2)C1)c1cnccn1", "active"],
  ["CCCCNN", "inactive"],
  ["Cc1cc(=O)oc2c(C)c3oc(CBr)cc3cc12", "inactive"],
  ["Cc1cc(-c2nc3cc(O)ccc3s2)ccc1N", "inactive"]
]}

----------
Each entry below carries its reported GI50.
Tested on: BT-549
assayProcedure: NCI tumour cell line growth inhibition, 48 h
The source made the active and inactive calls. Cut-off read from the data, not from the text of the source: active = GI50 up to about 1.1 µM and inactive = higher.

{"columns": ["molecule", "GI50"],
 "data": [
  ["O=C(CCNC(=O)OCc1ccccc1)OCCCNC(=O)OCc1ccccc1", "> 100 µM (inactive)"],
  ["CN(O)C(=O)CCC(NC(=O)CCC(N)C(=O)O)C(=O)NCC(=O)O (centres undefined)", "> 100 µM (inactive)"],
  ["CC(C)(C)OC(=O)NC(C)(C)C(=O)NCCC(=O)O", "> 100 µM (inactive)"],
  ["O/N=C\\c1cc(O)c(O)c(/C=N/O)c1", "79.1 µM (inactive)"]
]}
